FYI, the data here is from patent US20230235054A1.

Target: T1, cynoNectin4-mFc (cyno, UniProt A0A2K5WES1 32-349)
T1 construct: Immobilized on the SPR chip; also called cyanoNectin4; not shown: mFc (mouse Fc)
T1 sequence: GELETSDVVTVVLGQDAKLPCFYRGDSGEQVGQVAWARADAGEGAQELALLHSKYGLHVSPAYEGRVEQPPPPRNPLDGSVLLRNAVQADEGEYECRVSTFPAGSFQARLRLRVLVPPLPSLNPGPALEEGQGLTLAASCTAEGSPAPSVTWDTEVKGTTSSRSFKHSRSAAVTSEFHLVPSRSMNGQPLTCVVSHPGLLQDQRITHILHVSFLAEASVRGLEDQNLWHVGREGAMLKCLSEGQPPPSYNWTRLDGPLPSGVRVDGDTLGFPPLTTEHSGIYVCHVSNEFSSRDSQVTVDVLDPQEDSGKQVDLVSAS
Assay: SPR, cynoNectin4-mFc immobilized, pH 7.4
Is kon at least 300000 M⁻¹ s⁻¹? Then yes (1). If not, no (0).

# count of solved cases: 5
Binder	Category label
BAP-143-00-04 (antibody, V domains shown, Used as a conjugate with a linker payload (CAB ADC)) VH: EVQLVESGGGLVQPGGSLRLSCAASGFTFSSYNDNWVRQAPGKGLEWVSYISSSSSTIYYADSVKGRFTISRDNAKNSLSLQMNSLRDEDTAVYYCARAYYYGMDVWGQGTTVTVSS VL: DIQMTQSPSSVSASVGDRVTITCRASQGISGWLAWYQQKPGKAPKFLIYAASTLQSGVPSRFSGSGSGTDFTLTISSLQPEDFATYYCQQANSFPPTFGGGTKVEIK	yes (1)
BAP-143-00-05 (antibody, V domains shown, Used as a conjugate with a linker payload (CAB ADC)) VH: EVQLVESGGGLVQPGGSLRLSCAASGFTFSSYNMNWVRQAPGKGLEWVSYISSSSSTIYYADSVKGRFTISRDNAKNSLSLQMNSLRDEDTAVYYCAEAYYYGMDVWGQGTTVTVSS VL: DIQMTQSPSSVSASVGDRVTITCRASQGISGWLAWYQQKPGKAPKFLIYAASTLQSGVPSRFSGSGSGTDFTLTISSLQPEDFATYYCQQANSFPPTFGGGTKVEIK	yes (1)
BAP-143-00-01 (antibody, V domains shown, Used as a conjugate with a linker payload (CAB ADC)) VH: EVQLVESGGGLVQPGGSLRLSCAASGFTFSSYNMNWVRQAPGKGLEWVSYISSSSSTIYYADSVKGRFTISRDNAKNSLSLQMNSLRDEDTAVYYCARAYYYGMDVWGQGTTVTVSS VL: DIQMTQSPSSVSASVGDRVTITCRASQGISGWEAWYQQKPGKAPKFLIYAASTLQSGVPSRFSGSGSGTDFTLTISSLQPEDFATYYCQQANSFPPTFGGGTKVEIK	no (0)
BAP-143-00-03 (antibody, V domains shown, Used as a conjugate with a linker payload (CAB ADC)) VH: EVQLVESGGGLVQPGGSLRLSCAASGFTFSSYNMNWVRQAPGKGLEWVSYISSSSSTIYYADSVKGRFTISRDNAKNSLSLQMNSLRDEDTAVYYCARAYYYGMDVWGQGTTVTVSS VL: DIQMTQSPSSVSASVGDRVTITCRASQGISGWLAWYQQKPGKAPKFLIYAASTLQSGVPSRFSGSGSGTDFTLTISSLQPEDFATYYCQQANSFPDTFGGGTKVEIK	no (0)
BAP-143-00-02 (antibody, V domains shown, Used as a conjugate with a linker payload (CAB ADC)) VH: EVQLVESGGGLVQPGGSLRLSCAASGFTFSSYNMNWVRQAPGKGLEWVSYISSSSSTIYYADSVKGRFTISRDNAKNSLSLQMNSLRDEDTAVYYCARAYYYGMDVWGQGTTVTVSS VL: DIQMTQSPSSVSASVGDRVTITCRASQGISGWLAWYQQKPGKAPKFLIYAASTLQSGVPSRFSGSGSGTDFTLTISSLQPEDFATYYCQQANSEPPTFGGGTKVEIK	yes (1)

Okay, next one:
Incoming: Hello, I need to know if BAP-143-00-06 (antibody, V domains shown, Used as a conjugate with a linker payload (CAB ADC)) VH: EVQLVESGGGLVQPGGSLRLSCAASGFTFSSYNMNWVRQAPGKGLEWVSYISSSSSTIYYADSVKGRFTISRDNAKNSLSLQMNSLRDEDTAVYYCARAYYYGDDVWGQGTTVTVSS VL: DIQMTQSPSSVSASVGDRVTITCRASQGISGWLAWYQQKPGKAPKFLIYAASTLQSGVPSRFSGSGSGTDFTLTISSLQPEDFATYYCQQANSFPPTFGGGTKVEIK has measured kon not below 300000 M⁻¹ s⁻¹. Thanks!
Outgoing: yes (1)
